study.target: Nuclear receptor subfamily 1 group I member 2 (Homo sapiens)
method.notes: Human pregnane X receptor (PXR) activation by small molecules, qHTS assay (AID 1346985); further: nearly all actives have a fitted effect of over 40% in size
protocol.conditions: DPX-2 HepG2 CYP3A4-luciferase, 24 h; series mostly up to 38.3 µM
Records with an inconclusive call do not appear. Calls of active or inactive are those of the source. The call rests on the fitted dose curve; in most records, active means well fitted activation curve with a large enough effect in the repeat runs; inconclusive means weak or mixed curves; inactive means flat fitted curve, though single readings scatter.
Labels: active, inactive

compound	cat
CC(C)(C)NCC(O)c1ccccc1Cl (configuration not stated)	inactive
c1ccc2sc(SNC3CCCCC3)nc2c1	inactive
O=C(N/N=C/c1ccc([N+](=O)[O-])o1)c1cc([N+](=O)[O-])cc([N+](=O)[O-])c1O	inactive
COC1CC(=C(c2cccs2)c2cccs2)C[N+](C)(C)C1 (configuration not stated)	inactive
CC(C)CCON=O	inactive
CCOC(=O)NC(O)C(Cl)(Cl)Cl (configuration not stated)	inactive
O=CC=O	inactive
CCCC1CCCCN1 (configuration not stated)	inactive
CN1C[C@H](C(=O)N[C@]2(C)O[C@@]3(O)[C@@H]4CCCN4C(=O)[C@H](Cc4ccccc4)N3C2=O)C=C2c3cccc4[nH]cc(c34)C[C@H]21	active
C[N+](C)(C)CCOC(=O)C(O)(c1ccccc1)c1ccccc1	inactive
c1ccc2c(c1)sc1ccccc12	inactive
COc1ccc(C(=O)c2c(C)n(CCN3CCOCC3)c3ccccc23)cc1	active
